Reference for the values: patent US20250025443A1

The entries below are paired with their reported pIC50.
measured-on: SARS-CoV-2 Papain-Like Protease (PLpro) (Severe acute respiratory syndrome coronavirus 2 (2019-nCoV) (SARS-CoV-2), UniProt P0DTD1)
test-protocol: biochemical
test-conditions: SARS-CoV-2 PLpro enzymatic fluorescence assay; read-out: PLpro IC50
pIC50: −log10 of the molar value.
assay-readout: pIC50

{"columns": ["compound", "readout-value"],
 "data": [
  ["CCS(=O)(=O)N1CCC([C@@H](C)NC(=O)c2cc(NC3CNC3)ccc2C)CC1", "< 5.30"],
  ["Cc1ccc(NC2CNC2)cc1C(=O)NC1(c2cccc(-c3ccc(CN[C@H]4CC[C@@H](O)C4)s3)c2)CC1", "6.00 to 7.00"],
  ["Cc1ccc(OCC2CCN2c2ccccc2)cc1C(=O)NC1(c2cccc3ccccc23)CC1 (centres unmarked)", "< 5.30"],
  ["Cc1ccc(OCC2CCCCN2C)cc1C(=O)NC1(c2cccc3ccccc23)CC1 (centres unmarked)", "6.00 to 7.00"],
  ["CCSc1cc(C2(NC(=O)c3cc(OCCN(C)C)ccc3C)CC2)c2ccccc2c1", "> 7.00"],
  ["Cc1ccc(OC2COC2)cc1C(=O)N[C@H](C)c1cccc2ccccc12", "5.30 to 6.00"],
  ["CCN1CCC1COc1ccc(C)c(C(=O)NC2(c3cccc4ccccc34)CC2)c1 (centres unmarked)", "> 7.00"],
  ["Cc1cc2ccn(C3CNC3)c2cc1C(=O)NC1(c2cccc3ccccc23)CC1", "> 7.00"]
]}

---

Property: IC50; scope: individual compounds
measured-on: SARS-CoV-2 Papain-Like Protease (PLpro) (Severe acute respiratory syndrome coronavirus 2 (2019-nCoV) (SARS-CoV-2))
test-protocol: biochemical
test-conditions: SARS-CoV-2 PLpro enzymatic fluorescence assay; read-out: PLpro IC50

{"columns": ["compound", "IC50"],
 "data": [
  ["COc1cc(C2(NC(=O)c3cc(OC[C@@H]4CCCN4C)ccc3C)CC2)c2cccnc2c1", "< 100 nM"],
  ["Cc1ccc(OC2CCN(C(=O)OC(C)(C)C)CC2)cc1C(=O)N[C@H](C)c1cccc2ccccc12", "1000 to 5000 nM"],
  ["Cc1ccc(OC2CCCCN(C)C2)cc1C(=O)NC1(c2cccc3ccccc23)CC1 (stereo not drawn)", "100 to 1000 nM"],
  ["Cc1ccc(OC[C@@H]2CCN2C)cc1C(=O)NC1(c2cc(OC(C)C)cc3ncccc23)CC1", "< 100 nM"],
  ["Cc1ccc(OCCN(C)C)cc1C(=O)NC1(c2cccc(OCc3ccccc3)c2)CC1", "> 5000 nM"],
  ["Cc1ccc(OC[C@@H]2CCN2C)cc1C(=O)NC1(c2cc(O)nc3cc(F)ccc23)CC1", "< 100 nM"],
  ["Cc1cc2ccc(=O)[nH]c2cc1C(=O)N[C@H](C)c1cccc2ccccc12", "> 5000 nM"],
  ["Cc1ccc(OC2CN(Cc3ccccc3)C(C)(C)C2)cc1C(=O)NC1(c2cccc3ccccc23)CC1 (stereo not drawn)", "100 to 1000 nM"],
  ["Cc1ccc(Nc2cn[nH]c2)cc1C(=O)N[C@H](C)c1cccc2ccccc12", "1000 to 5000 nM"],
  ["Cc1ccc(OCC2CCN2C)cc1C(=O)NC1(c2cc(C(N)=O)cc3ccccc23)CC1 (stereo not drawn)", "< 100 nM"],
  ["Cc1cc2cc(CN(C)C)[nH]c2cc1C(=O)NC1(c2cccc3ccccc23)CC1", "100 to 1000 nM"],
  ["Cc1ccc(N)cc1C(=O)NC1(c2cccc3ccccc23)COC1", "100 to 1000 nM"],
  ["Cc1ccc2c(C3(NC(=O)c4cc(OC[C@@H]5CCN5C)ccc4C)CC3)cccc2n1", "< 100 nM"],
  ["Cc1cc2c(cc1C(=O)NC1(c3cccc4ccccc34)CC1)n(C)c(=O)n2C", "1000 to 5000 nM"],
  ["Cc1cc2cccnc2cc1C(=O)N[C@H](C)c1cccc2ccccc12", "1000 to 5000 nM"],
  ["Cc1cc2nc(CN)[nH]c2cc1C(=O)NC1(c2cccc3ccccc23)CC1", "100 to 1000 nM"],
  ["Cc1ccc(OC[C@@H]2CCN2C)cc1C(=O)NC1(c2cc(N(C)C)cc3ncccc23)CC1", "< 100 nM"],
  ["Cc1ccc(OCCN(C)C)cc1C(=O)NC1(c2cccc3ccoc23)CC1", "100 to 1000 nM"],
  ["CN(C)CCOc1ccc(Br)c(C(=O)NC2(c3cccc4ccccc34)CC2)c1", "100 to 1000 nM"],
  ["Cc1ccc(OCC2CCN2C)cc1C(=O)NC1(c2cccc3ccc(N)cc23)CC1 (stereo not drawn)", "< 100 nM"],
  ["CC(=O)NCCOc1ccc(C)c(C(=O)NC2(c3cccc4ccccc34)CC2)c1", "100 to 1000 nM"],
  ["Cc1cc2cc(CN)oc2cc1C(=O)NC1(c2cccc3ccccc23)CC1 [Compound 197]", "< 100 nM"],
  ["Cc1ccc(OC[C@H]2CCN2C)cc1C(=O)NC1(c2cccc3ccccc23)CC1", "< 100 nM"],
  ["Cc1ccc(OC2CCNCC2)cc1C(=O)N[C@H](C)c1cccc2ccccc12", "100 to 1000 nM"],
  ["Cc1ccc(OCC(N)c2ccccc2)cc1C(=O)NC1(c2cccc3ccccc23)CC1 (stereo not drawn)", "< 100 nM"],
  ["Cc1ccc(OCCNC(C)C)cc1C(=O)NC1(c2cccc3ccccc23)CC1", "< 100 nM"],
  ["Cc1cc2nc(CN)[nH]c2cc1C(=O)N[C@H](C)c1cccc2ccccc12", "100 to 1000 nM"],
  ["CON(C)C(=O)c1cc2cc(C)c(C(=O)NC3(c4cccc5ccccc45)CC3)cc2[nH]1", "100 to 1000 nM"],
  ["Cc1cc(I)c(N)cc1C(=O)NC1(c2cccc3ccccc23)CC1", "100 to 1000 nM"],
  ["Cc1cc(C2(NC(=O)c3cc(OCC4CCN4C)ccc3C)CC2)c2ccccc2c1 (stereo not drawn)", "< 100 nM"],
  ["Cc1cc2[nH]ccc2cc1C(=O)NC1(c2cccc3ccccc23)CC1", "100 to 1000 nM"],
  ["CCCOc1cc(C2(NC(=O)c3cc(OCC4CCN4C)ccc3C)CC2)c2ccccc2c1 (stereo not drawn)", "< 100 nM"],
  ["Cc1ccc(OCCN(C)C)cc1C(=O)NC1(c2cccc3ccsc23)CC1", "100 to 1000 nM"]
]}

---

measured-on: SARS-CoV-2 Papain-Like Protease (PLpro) (Severe acute respiratory syndrome coronavirus 2 (2019-nCoV) (SARS-CoV-2), UniProt P0DTD1)
test-protocol: biochemical
test-conditions: SARS-CoV-2 PLpro enzymatic fluorescence assay; read-out: PLpro IC50
pIC50: −log10 of the molar value.

{"columns": ["compound", "pIC50"],
 "data": [
  ["c1ccc2c(C3(NCc4ccc5[nH]ncc5c4)CC3)cccc2c1", "< 5.30"],
  ["Cc1ccc(CCN)cc1C(=O)NC1(c2cccc3ccccc23)CC1", "> 7.00"],
  ["Cc1cc2cc(CN)[nH]c2cc1C(=O)NCc1cccc2ccccc12", "< 5.30"],
  ["Cc1ccc(OCC2CCN2C)cc1C(=O)NC1(c2cc(C(C)C)cc3ccccc23)CC1 (centres unmarked)", "> 7.00"],
  ["Cc1ccc(OCC2CC(C)(C)N2Cc2ccccc2)cc1C(=O)NC1(c2cccc3ccccc23)CC1 (centres unmarked)", "6.00 to 7.00"],
  ["COc1cc(C2(NC(=O)c3cc(OC[C@@H]4C[C@@H](F)CN4)ccc3C)CC2)c2ccccc2c1", "> 7.00"],
  ["COc1cc(C2(NC(=O)c3cc(OCC(C)N)ccc3C)CC2)c2ccccc2c1 (centres unmarked)", "> 7.00"],
  ["COC(=O)/C=C/C(=O)NNC(=O)CCc1ccccc1C(=O)NC1(c2cccc3ccccc23)CC1", "> 7.00"],
  ["Cc1ccc(OCCN)cc1C(=O)N(C)C1(c2cccc3ccccc23)CC1", "< 5.30"],
  ["Cc1ccc(OCCN(C)C)cc1C(=O)NC1(c2cccc(C3=CCCCC3)c2)CC1", "5.30 to 6.00"],
  ["Cc1cc2cc(CN(C)C)oc2cc1C(=O)NC1(c2cccc3ccccc23)CC1", "6.00 to 7.00"],
  ["Cc1ccc(NC2CNC2)cc1C(=O)NC1(c2cccc(-c3cccs3)c2)CC1", "6.00 to 7.00"],
  ["Cc1cc2cc(CN)[nH]c2cc1C(=O)NC1(c2cccc3ccccc23)CC1", "> 7.00"],
  ["Cc1ccc(OCCN(C)C)cc1C(=O)NC1(c2cccc(-c3cccs3)c2)CC1", "6.00 to 7.00"],
  ["Cc1cc2ccn(C3CN(C)C3)c2cc1C(=O)NC1(c2cccc3ccccc23)CC1", "> 7.00"],
  ["Cc1ccc(OCC2CCN2CC2CC2)cc1C(=O)NC1(c2cccc3ccccc23)CC1 (centres unmarked)", "> 7.00"],
  ["Cc1ccc(OCC2(C)CCN2C)cc1C(=O)NC1(c2cccc3ccccc23)CC1 (centres unmarked)", "> 7.00"]
]}
